These measurements were taken from patent US10987354B2.

# Tested on: Influenza B virus-B/Lee/40
# test summary: microbe, parasite or virus in culture
# Assay type: cell-based
# test settings: 72 h, MDCK cells, CPE, 3 days, CellTiter, read-out: EC50, inhibitory activity against influenza virus (Influenza B virus-B/Lee/40)
property: pEC50
Notebook: values listed as pEC50 are -log10 of the concentration (mol/L).

> print(dat)
                           structure.string                         tgt  property  readout.value
1  O=C(O)[C@H]1C2CCC(CC2)[C@@H]1Nc1nc(-c2c[nH]c3ncc(Cl)nc23)nc(-n2cccc2)c1F  Influenza B virus-B/Lee/40     pEC50           4.58

Could you now consider this next compound?
Form entry - test system: Influenza B virus-B/Lee/40; read-out: pEC50; compound: CC(C)n1ccc2c(N[C@H]3C4CCC(CC4)[C@@H]3C(=O)O)nc(-c3c[nH]c4ncc(Cl)nc34)nc21
5.79

###

# test summary: in vivo
# test settings: SD, rat, iv, 1 mg/kg
property: clearance (mL/min/kg)
Only the number, expressed in mL/min/kg, is required.

Example entries and their recorded answers appear below.
> print(dat)
                                   compound   unit.tag  readout.value
1  O=C(O)[C@H]1C2CCC(CC2)[C@@H]1Nc1nc(-c2c[nH]c3ncc(Cl)nc23)nc(-c2ccc(F)s2)c1F [Example 62]  mL/min/kg           50.7
2  O=C(O)[C@H]1C2CCC(CC2)[C@@H]1Nc1nc(-c2c[nH]c3ncc(Cl)nc23)nc(-c2nccs2)c1F [Example 49]  mL/min/kg           71.5
3  O=C(O)[C@H]1C2CCC(CC2)[C@@H]1Nc1nc(-c2c[nH]c3ncc(Cl)nc23)ncc1F [Compound A, reference compound]  mL/min/kg            312

GET /values?readout=clearance&item= O=C(O)[C@H]1C2CCC(CC2)[C@@H]1Nc1nc(-c2c[nH]c3ncc(Cl)nc23)nc(-c2ccc(Cl)s2)c1F [Example 29]
56.3

GET /values?readout=clearance&item= CC(C)Cn1ccc2c(N[C@H]3C4CCC(CC4)[C@@H]3C(=O)O)nc(-c3c[nH]c4ncc(Cl)nc34)nc21 [Example 66]
82.5
